Biological target: dAsCas12a S542R (Acidaminococcus sp., UniProt U2UMQ6 1-1307, S542R;D908A;E993A;D1235A)
Assay: Spec-seq (native PAGE EMSA with sequencing of bound and unbound); 25 mM Tris-HCl pH 7.4, 150 mM KCl, 5 mM MgCl2, 10% glycerol, 1 mM DTT, 40 ng/uL salmon sperm DNA; 400 nM Cas12a, 480 nM crRNA, 50 nM library, 37 C 1 h; native PAGE at room temperature; high values mean tight binding;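 also: relative affinity from the bound to unbound sequence frequency ratio in Spec-seq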
Conditions: protein: recombinant
What binding signal was measured for each of the following?
The reply should read as a number followed by its unit.

Return reported binding signal; argument: CCGG (dsDNA) DNA 1: GCTATCTAGTGCTCAGTACGCACTGCCGGAGGAAACTTCTGGCAGGACCAGGTCATGAGATCGGAAGAGCACACGTCTGAACTCCAGTCA DNA 2: TGACTGGAGTTCAGACGTGTGCTCTTCCGATCTCATGACCTGGTCCTGCCAGAAGTTTCCTCCGGCAGTGCGTACTGAGCACTAGATAGC RNA: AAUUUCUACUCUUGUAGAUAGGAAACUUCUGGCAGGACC -8.41 lnKA

Another binder to look at: GTGC (dsDNA) DNA 1: GCTATCTAGTGCTCAGTACGCACTGGTGCAGGAAACTTCTGGCAGGACCAGGTCATGAGATCGGAAGAGCACACGTCTGAACTCCAGTCA DNA 2: TGACTGGAGTTCAGACGTGTGCTCTTCCGATCTCATGACCTGGTCCTGCCAGAAGTTTCCTGCACCAGTGCGTACTGAGCACTAGATAGC RNA: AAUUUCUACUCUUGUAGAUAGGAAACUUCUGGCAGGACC -8.4 lnKA

Now try ATAT (dsDNA) DNA 1: GCTATCTAGTGCTCAGTACGCACTGATATAGGAAACTTCTGGCAGGACCAGGTCATGAGATCGGAAGAGCACACGTCTGAACTCCAGTCA DNA 2: TGACTGGAGTTCAGACGTGTGCTCTTCCGATCTCATGACCTGGTCCTGCCAGAAGTTTCCTATATCAGTGCGTACTGAGCACTAGATAGC RNA: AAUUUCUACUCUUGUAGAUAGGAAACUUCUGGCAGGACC . -8.38 lnKA

Param item: ACTA (dsDNA) DNA 1: GCTATCTAGTGCTCAGTACGCACTGACTAAGGAAACTTCTGGCAGGACCAGGTCATGAGATCGGAAGAGCACACGTCTGAACTCCAGTCA DNA 2: TGACTGGAGTTCAGACGTGTGCTCTTCCGATCTCATGACCTGGTCCTGCCAGAAGTTTCCTTAGTCAGTGCGTACTGAGCACTAGATAGC RNA: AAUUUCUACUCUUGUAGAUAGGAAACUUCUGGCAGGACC -7.5 lnKA

Now the same for TAGA (dsDNA) DNA 1: GCTATCTAGTGCTCAGTACGCACTGTAGAAGGAAACTTCTGGCAGGACCAGGTCATGAGATCGGAAGAGCACACGTCTGAACTCCAGTCA DNA 2: TGACTGGAGTTCAGACGTGTGCTCTTCCGATCTCATGACCTGGTCCTGCCAGAAGTTTCCTTCTACAGTGCGTACTGAGCACTAGATAGC RNA: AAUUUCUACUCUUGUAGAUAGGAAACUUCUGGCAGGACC -8.65 lnKA

Now the binder TGCG (dsDNA) DNA 1: GCTATCTAGTGCTCAGTACGCACTGTGCGAGGAAACTTCTGGCAGGACCAGGTCATGAGATCGGAAGAGCACACGTCTGAACTCCAGTCA DNA 2: TGACTGGAGTTCAGACGTGTGCTCTTCCGATCTCATGACCTGGTCCTGCCAGAAGTTTCCTCGCACAGTGCGTACTGAGCACTAGATAGC RNA: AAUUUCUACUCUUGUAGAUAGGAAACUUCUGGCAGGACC -8.2 lnKA

Continue with CGGC (dsDNA) DNA 1: GCTATCTAGTGCTCAGTACGCACTGCGGCAGGAAACTTCTGGCAGGACCAGGTCATGAGATCGGAAGAGCACACGTCTGAACTCCAGTCA DNA 2: TGACTGGAGTTCAGACGTGTGCTCTTCCGATCTCATGACCTGGTCCTGCCAGAAGTTTCCTGCCGCAGTGCGTACTGAGCACTAGATAGC RNA: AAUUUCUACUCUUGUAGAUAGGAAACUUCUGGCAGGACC -8.51 lnKA

Next binder up: TTAA (dsDNA) DNA 1: GCTATCTAGTGCTCAGTACGCACTGTTAAAGGAAACTTCTGGCAGGACCAGGTCATGAGATCGGAAGAGCACACGTCTGAACTCCAGTCA DNA 2: TGACTGGAGTTCAGACGTGTGCTCTTCCGATCTCATGACCTGGTCCTGCCAGAAGTTTCCTTTAACAGTGCGTACTGAGCACTAGATAGC RNA: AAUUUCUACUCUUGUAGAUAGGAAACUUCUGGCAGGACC -6.82 lnKA

Try the binder CGTG (dsDNA) DNA 1: GCTATCTAGTGCTCAGTACGCACTGCGTGAGGAAACTTCTGGCAGGACCAGGTCATGAGATCGGAAGAGCACACGTCTGAACTCCAGTCA DNA 2: TGACTGGAGTTCAGACGTGTGCTCTTCCGATCTCATGACCTGGTCCTGCCAGAAGTTTCCTCACGCAGTGCGTACTGAGCACTAGATAGC RNA: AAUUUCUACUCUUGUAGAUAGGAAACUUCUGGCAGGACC -8.73 lnKA

Next: CCTA (dsDNA) DNA 1: GCTATCTAGTGCTCAGTACGCACTGCCTAAGGAAACTTCTGGCAGGACCAGGTCATGAGATCGGAAGAGCACACGTCTGAACTCCAGTCA DNA 2: TGACTGGAGTTCAGACGTGTGCTCTTCCGATCTCATGACCTGGTCCTGCCAGAAGTTTCCTTAGGCAGTGCGTACTGAGCACTAGATAGC RNA: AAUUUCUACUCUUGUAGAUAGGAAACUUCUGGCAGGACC -7.77 lnKA
